Molecular target: V1 receptor (Rattus norvegicus, UniProt P30560)
Construct: Using rat liver plasma membrane preparations; from tissue; host or cells: rat liver plasma membranes
Sequence (P30560 whole entry): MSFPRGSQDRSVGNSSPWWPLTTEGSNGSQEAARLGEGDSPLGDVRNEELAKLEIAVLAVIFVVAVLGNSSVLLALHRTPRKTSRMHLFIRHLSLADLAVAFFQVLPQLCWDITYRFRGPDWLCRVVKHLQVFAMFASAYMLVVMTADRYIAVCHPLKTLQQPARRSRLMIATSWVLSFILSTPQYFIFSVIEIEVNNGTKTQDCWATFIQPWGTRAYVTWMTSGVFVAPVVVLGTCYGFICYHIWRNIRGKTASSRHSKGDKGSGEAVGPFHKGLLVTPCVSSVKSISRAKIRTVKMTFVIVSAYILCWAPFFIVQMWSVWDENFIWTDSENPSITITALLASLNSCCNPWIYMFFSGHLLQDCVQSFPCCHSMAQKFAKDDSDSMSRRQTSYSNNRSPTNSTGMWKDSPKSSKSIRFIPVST
Experiment: V1 receptor binding assay (inhibition of [3H]-Arg-vasopressin binding to rat liver plasma membrane)
Settings: rat liver plasma membrane; [H]^3-Arg-vasopressin 2×10^-10 M; 37° C., 10 minutes, pH 8.0; read-out: IC50
Experimental: Using rat liver plasma membrane preparations prepared according to Ichihara's method [cf: Akira Ichihara, J. Bio. […] The amount of [H]^3 -vasopressin combined with the membrane is measured by liquid scintillation counter and the rate of the inhibitory effect of the test compound is estimated according to the following equation. […]
Counter-ions that a name gives are not always drawn.
Field: log10 IC50. Provide a value for each of the compounds that follow.
log10 IC50, µM

These recorded examples may help you get a feel for the data.
INSERT INTO measurements (compound, test_result) VALUES
  ('O=C(c1ccc(OCCCCCNCC(F)(F)F)cc1)N1CCC(N2C(=O)CCc3ccccc32)CC1', -0.49),
  ('Nc1ccccc1Sc1nccn1-c1ccc(C(=O)N2CCC(N3C(=O)CCc4ccccc43)CC2)cc1', -0.10),
  ('O=C(c1ccc(OCCCCCNCC23CC4CC(CC(C4)C2)C3)cc1)N1CCC(N2C(=O)CCc3ccccc32)CC1', -1.00);

// for each compound below, give its log10 IC50
1. CCN(CC)CC(CCCCOc1ccc(C(=O)N2CCC(N3C(=O)CCc4ccccc43)CC2)cc1)OC(=O)NC (stereo not shown)
2. O=C(c1ccc(S(=O)(=O)CCCCCN2CCCC2)cc1)N1CCC(N2C(=O)CCc3ccccc32)CC1
3. NC1CCN(CCCCCOc2ccc(C(=O)N3CCC(N4C(=O)CCc5ccccc54)CC3)cc2)CC1
4. O=C(c1ccc(OCCCCCNC23CC4CC(CC(C4)C2)C3)cc1)N1CCC(N2C(=O)CCc3ccccc32)CC1 [Test Compound 2, hydrochloride]
5. O=C(c1ccc(-n2ccnc2-c2ccccc2)cc1)N1CCC(N2C(=O)CCc3ccccc32)CC1
6. CCOc1ccc(C(=O)N2CCC(N3C(=S)CCc4ccccc43)CC2)c(OC)c1

1: -1.42; 2: 0.28; 3: -1.55; 4: -1.57; 5: 0.45; 6: -0.14

// for each compound below, give its log10 IC50
1. COc1ccc(-c2nccn2-c2ccc(C(=O)N3CCC(N4C(=O)CCc5ccccc54)CC3)cc2)cc1
2. O=C(c1ccc(-c2nc3ccccc3[nH]2)cc1)N1CCC(N2C(=O)CCc3ccccc32)CC1
3. O=C(c1ccc(SCCCCCN2CCCC2)cc1)N1CCC(N2C(=O)CCc3ccccc32)CC1
4. O=C(c1ccc([S+]([O-])CCCCCN2CCCC2)cc1)N1CCC(N2C(=O)CCc3ccccc32)CC1 (stereo not shown)

1. 0.43
2. 0.32
3. -1.47
4. 0.48

###

Target: V1 receptor (Rattus norvegicus, UniProt P30560)
Construct: Using rat liver plasma membrane preparations; from tissue; host or cells: rat liver plasma membranes
Test: V1 receptor binding assay (inhibition of [3H]-Arg-vasopressin binding to rat liver plasma membrane)
Conditions: rat liver plasma membrane; [H]^3-Arg-vasopressin 2×10^-10 M; 37° C., 10 minutes, pH 8.0; read-out: IC50
pIC50: −log10 of the molar value.
# if value of pIC50 reaches 7, tag MET; if it stays below, tag NOT MET

Solved entries:
INSERT INTO assay_data (compound, qualitative_label) VALUES
  ('O=C(c1ccc(OCCCCCN2CCC3(CCCCC3)CC2)cc1)N1CCC(N2C(=O)CCc3ccccc32)CC1 [Test Compound 1]', 'MET'),
  ('O=C(c1ccc(-c2ncc[nH]2)cc1)N1CCC(N2C(=O)CCc3ccccc32)CC1 [Test Compound 14]', 'NOT MET'),
  ('O=C(c1ccc(-c2ccccn2)cc1)N1CCC(N2C(=O)CCc3ccccc32)CC1 [Test Compound 13]', 'NOT MET');

Now look at this entry.
Check the entry CC(=O)NC1CCN(CCCCCOc2ccc(C(=O)N3CCC(N4C(=O)CCc5ccccc54)CC3)cc2)CC1 [Test Compound 9] : does pIC50 equal or exceed 7?
MET
